conditions: in NMP, 308.15 K
PROPERTY_LABEL: solubility (mole fraction)
One number for each entry.

Fill in: solubility (mole fraction) of C[C@@H](O)[C@H]1C(=O)N2C(C(=O)[O-])=C(SC3Cn4cnc[n+]4C3)[C@H](C)[C@H]12 (stereo partly specified) is ___
0.000117

* * *

details: in DMF, 313.15 K
PROPERTY_LABEL: solubility (mole fraction)
Give bare numbers.

Fill in: solubility (mole fraction) of C[C@@H](O)[C@H]1C(=O)N2C(C(=O)[O-])=C(SC3Cn4cnc[n+]4C3)[C@H](C)[C@H]12 (stereo partly specified) is ___
0.000107
